- Tested on: SEM cells
- method notes: cell viability relative to DMSO control; higher = less cytotoxic
- study conditions: HPLM + 10% dialyzed FBS; 48 h; 0.0632 µM
Hi there, I'd appreciate the recorded cell viability for every entry that follows.

(Q) Look up and report measured cell viability (SEM cells) for the following compound: COc1ccc(Nc2cc(-c3cnc(N)nc3)nc(N3CCOCC3)n2)cn1
(A) 99.4%

(Q) Look up and report measured cell viability (SEM cells) for the following compound: CCN1C[C@]2(OC(=O)c3ccccc3NC(C)=O)CC[C@H](OC)[C@@]34[C@@H]2C[C@@H]([C@@H]13)[C@@]1(O)C[C@H](OC)[C@H]2C[C@@H]4[C@]1(O)[C@H]2OC
(A) 99.6%

(Q) Look up and report measured cell viability (SEM cells) for the following compound: CCN(C)C(=O)Oc1cccc([C@H](C)N(C)C)c1
(A) 110%

(Q) Look up and report measured cell viability (SEM cells) for the following compound: COc1cc(-c2nn(C3CCC(N4CCN(C(C)=O)CC4)CC3)c3ncnc(N)c23)ccc1NC(=O)c1cc2ccccc2n1C (stereo unspecified)
(A) 123%

(Q) Look up and report measured cell viability (SEM cells) for the following compound: C#C[C@]1(O)CC[C@H]2[C@@H]3CCc4cc(OC)ccc4[C@H]3CC[C@@]21C
(A) 122%

(Q) Look up and report measured cell viability (SEM cells) for the following compound: CC1=C(CC/C(C)=C/CCC2=CCC(C3=CC(=O)OC3O)OC2O)C(C)(C)CCC1 (stereo unspecified)
(A) 46.6%

(Q) Look up and report measured cell viability (SEM cells) for the following compound: CN1C(=O)/C=C(/NCCN(CCO)CCCC2=CC=C(C=C2)[N+]([O-])=O)N(C)C1=O
(A) 108%

(Q) Look up and report measured cell viability (SEM cells) for the following compound: CN[C@@H]1C[C@H]2O[C@@](C)([C@@H]1OC)n1c3ccccc3c3c4c(c5c6ccccc6n2c5c31)C(=O)N[C@H]4O
(A) 64%

(Q) Look up and report measured cell viability (SEM cells) for the following compound: C[N+](C)([O-])CCNc1ccc(NCC[N+](C)(C)[O-])c2c1C(=O)c1c(O)ccc(O)c1C2=O
(A) 88.8%

(Q) Look up and report measured cell viability (SEM cells) for the following compound: CC(C)[C@H](CO)Nc1nc(Nc2cccc(Cl)c2)c2ncn(C(C)C)c2n1
(A) 110%

(Q) Look up and report measured cell viability (SEM cells) for the following compound: CC(NCc1ccc2c(c1)[nH]/c(=N\C(=O)c1ccc(-c3cn[nH]c3)s1)n2CC(C)(C)O)C(C)(C)C (stereo unspecified)
(A) 47.7%

(Q) Look up and report measured cell viability (SEM cells) for the following compound: C[C@@H]1CC[C@@]2(OC1)OC1CC3C4CC=C5CC(O)CCC5(C)C4CCC3(C)C1[C@@H]2C (stereo partly specified)
(A) 100%

(Q) Look up and report measured cell viability (SEM cells) for the following compound: Cc1cc(Cl)ccc1OCCCC(=O)NO
(A) 130%

(Q) Look up and report measured cell viability (SEM cells) for the following compound: CN(C)C[C@@H]1CC[N]2C=C(C3=C2C=CC=C3)C/4=C(/C(=O)NC4=O)C5=C[N](CCO1)C6=C5C=CC=C6
(A) 97.5%

(Q) Look up and report measured cell viability (SEM cells) for the following compound: Cc1ncc([N+](=O)[O-])n1CCO
(A) 112%

(Q) Look up and report measured cell viability (SEM cells) for the following compound: Cc1cn(CCN2CCN(c3ccccc3-c3cc(C#N)cc(C(=O)NCCCN4CCCC4)c3)CC2)c2ccccc12
(A) 99.9%

Origin of values: the supplement of paper PMC11451515
